System: COLO 205 colon
assay: NCI-60 one-dose screen, 48 h (100 = growth as untreated, 0 = no growth, -100 = all killed)
particulars: 10 µM unless noted
The panel holds about 83,000 compounds, 20% with a hit somewhere; the sample as a whole holds those more often.
Under this convention, Condition met denotes growth strictly below 40% and Condition not met denotes growth at or above 40%.

Just wondering, is growth of COc1ccc(/C=N/Nc2c3ccccc3nc3ccccc23)cc1 below 40%?
Condition not met

Regarding C=C1C(=O)O[C@H]2[C@H]1CC/C(CNC(=O)Cc1c[nH]c3ccccc13)=C\CC[C@@]1(C)O[C@@H]21 , kindly confirm whether its growth is beneath 40%.
Condition met

API: query returns whether the compound falls strictly under 40% in growth. Query: CCN1CCN(CCNc2nccc(-c3c(-c4ccc(F)c(O)c4)nc4occn34)n2)S1(=O)=O
Condition met

growth strictly < 40% for this compound? CCCCCc1ccc(S(=O)(=O)Nc2ccc3nc(N)oc3c2)cc1
Condition not met

Hello, I'm reviewing records and need to know if growth of O=c1oc2c(cc1-c1ccccc1)c(=O)[nH]c1ccccc12 is below 40%. Could you check?
Condition not met
